Biological target: PvcFRS (Plasmodium vivax, UniProt A5K9S0)
Construct: Full-length PvcFRS was also purified according to the same protocol; vector-encoded tag of pETM11 (own knowledge: N-terminal His6 with TEV site); Ni-NTA purification; made in house; host or cells: E. coli strain B834
Sequence (A5K464 whole entry): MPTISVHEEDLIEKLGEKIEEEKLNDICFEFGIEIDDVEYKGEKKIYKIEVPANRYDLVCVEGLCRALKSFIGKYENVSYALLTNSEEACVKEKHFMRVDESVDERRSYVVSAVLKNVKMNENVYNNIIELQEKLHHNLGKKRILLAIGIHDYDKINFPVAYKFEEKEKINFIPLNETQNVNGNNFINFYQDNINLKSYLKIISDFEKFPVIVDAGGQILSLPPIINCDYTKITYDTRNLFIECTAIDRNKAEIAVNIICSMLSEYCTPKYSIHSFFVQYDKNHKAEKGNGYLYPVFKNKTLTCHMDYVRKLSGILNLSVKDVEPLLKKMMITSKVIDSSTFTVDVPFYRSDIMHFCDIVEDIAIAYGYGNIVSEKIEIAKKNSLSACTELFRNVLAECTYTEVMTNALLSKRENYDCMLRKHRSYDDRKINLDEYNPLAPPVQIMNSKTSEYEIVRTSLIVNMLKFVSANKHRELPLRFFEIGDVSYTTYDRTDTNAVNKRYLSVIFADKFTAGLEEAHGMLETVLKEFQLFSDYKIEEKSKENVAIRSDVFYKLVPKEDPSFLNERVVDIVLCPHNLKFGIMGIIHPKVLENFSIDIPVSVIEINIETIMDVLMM
Sequence (A5K9S0 whole entry): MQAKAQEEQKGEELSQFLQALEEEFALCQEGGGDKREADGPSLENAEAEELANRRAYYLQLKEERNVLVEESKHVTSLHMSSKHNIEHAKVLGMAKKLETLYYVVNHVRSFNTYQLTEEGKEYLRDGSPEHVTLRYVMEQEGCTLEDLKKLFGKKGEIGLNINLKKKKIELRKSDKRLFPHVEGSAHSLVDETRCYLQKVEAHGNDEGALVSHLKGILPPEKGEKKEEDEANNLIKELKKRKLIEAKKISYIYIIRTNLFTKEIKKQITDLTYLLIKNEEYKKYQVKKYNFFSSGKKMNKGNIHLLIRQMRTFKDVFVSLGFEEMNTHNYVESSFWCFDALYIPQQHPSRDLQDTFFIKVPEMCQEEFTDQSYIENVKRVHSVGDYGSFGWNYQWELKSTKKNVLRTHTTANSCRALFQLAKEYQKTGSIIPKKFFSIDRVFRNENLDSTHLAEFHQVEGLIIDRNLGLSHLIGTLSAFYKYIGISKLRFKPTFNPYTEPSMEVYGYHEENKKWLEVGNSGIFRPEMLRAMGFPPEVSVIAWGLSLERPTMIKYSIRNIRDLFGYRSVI
Assay: Malachite green aminoacylation enzyme inhibition assay
Type: biochemical
Settings: Pv cFRS aminoacylation activity
ATTRIBUTE MEASURED: IC50 (nM)
Write down the numeric answer in nM and omit the unit.

Documented IC50 of COC[C@@H]1[C@H](c2ccc(C#Cc3ccccc3)cc2)[C@@H]2CN(C(=O)Nc3ccc(OC4CC4)cc3)C[C@@H](O)[C@@H](O)CN12 : 25

###

Target: HscFRS (Homo sapiens, UniProt Q9Y285)
Sequence (Q9NSD9 whole entry): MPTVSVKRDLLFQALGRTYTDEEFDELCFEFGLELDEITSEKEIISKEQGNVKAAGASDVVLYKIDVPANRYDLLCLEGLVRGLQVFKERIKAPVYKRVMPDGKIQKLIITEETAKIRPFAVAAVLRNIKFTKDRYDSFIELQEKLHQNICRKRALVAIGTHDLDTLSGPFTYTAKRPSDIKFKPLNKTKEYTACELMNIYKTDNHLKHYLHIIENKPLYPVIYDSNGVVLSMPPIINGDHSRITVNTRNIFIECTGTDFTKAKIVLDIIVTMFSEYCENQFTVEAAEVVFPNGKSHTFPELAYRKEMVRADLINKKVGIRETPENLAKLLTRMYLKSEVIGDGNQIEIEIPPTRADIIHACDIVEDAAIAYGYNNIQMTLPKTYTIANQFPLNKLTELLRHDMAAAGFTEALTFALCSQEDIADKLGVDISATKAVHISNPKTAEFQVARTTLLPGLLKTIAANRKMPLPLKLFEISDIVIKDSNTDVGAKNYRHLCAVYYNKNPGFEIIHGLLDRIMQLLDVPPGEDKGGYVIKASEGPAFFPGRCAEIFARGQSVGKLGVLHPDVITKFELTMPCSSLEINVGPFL
Sequence (Q9Y285 whole entry): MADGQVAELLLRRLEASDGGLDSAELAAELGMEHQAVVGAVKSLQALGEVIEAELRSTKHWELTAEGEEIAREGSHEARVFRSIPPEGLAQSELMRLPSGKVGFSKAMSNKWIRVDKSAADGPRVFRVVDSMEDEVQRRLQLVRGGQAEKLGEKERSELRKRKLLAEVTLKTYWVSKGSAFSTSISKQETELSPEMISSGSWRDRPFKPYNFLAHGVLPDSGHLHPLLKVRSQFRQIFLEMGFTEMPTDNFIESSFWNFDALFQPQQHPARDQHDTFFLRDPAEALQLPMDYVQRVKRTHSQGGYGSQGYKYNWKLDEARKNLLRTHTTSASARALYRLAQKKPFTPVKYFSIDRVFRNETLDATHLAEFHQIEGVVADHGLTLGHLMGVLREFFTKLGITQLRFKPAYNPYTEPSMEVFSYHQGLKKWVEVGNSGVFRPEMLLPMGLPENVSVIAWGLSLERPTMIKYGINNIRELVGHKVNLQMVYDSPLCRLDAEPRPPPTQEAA
ATTRIBUTE MEASURED: IC50
Remember to follow the number with its unit.

Documented IC50 of COC[C@@H]1[C@H](c2ccc(C#Cc3ccccc3)cc2)[C@@H]2CN(C(=O)Nc3ccc(OC4CC4)cc3)C[C@@H](O)[C@@H](O)CN12 : 12 µM

Provenance of the data: paper PMC7803973
